System: HRV 21
Assay procedure: Cytopathic effect (CPE) inhibition assay
Format: cell-based, human rhinovirus
Stated conditions: Human rhinovirus sp., 72 h; host cell HeLa, 3 days, MEM/2% FBS, MTT assay; read-out: EC50 HRV 21
Answer each item with its documented EC50.

Example compounds with recorded EC50:
INSERT INTO assay_data (compound, endpoint_result) VALUES
  ('CC(C)c1ccc2c(c1)OC1(O)c3ccccc3C(=O)C21N/C(=N\C(=O)OC(C)(C)C)NC(=O)OC(C)(C)C (centres unmarked)', '> 10 µg/mL'),
  ('CCCCCCC(=O)C(=O)NC12C(=O)c3ccccc3C1(O)Oc1cc(C(C)C)ccc12 (centres unmarked)', '> 8.57 µg/mL'),
  ('CC(=O)C(=O)NC12C(=O)c3cccc([N+](=O)[O-])c3C1(O)Oc1cc(C(C)C)ccc12 (centres unmarked)', '> 10 µg/mL'),
  ('CC(C)c1ccc2c(c1)OC1(O)c3ccccc3C(=O)C21NC#N (centres unmarked)', '> 10 µg/mL'),
  ('CCCC(=O)C(=O)NC12C(=O)c3ccccc3C1(O)Oc1cc(C(C)C)ccc12 (centres unmarked)', '> 8.49 µg/mL');

List the reported EC50 of each compound below.
1. CC(C)c1ccc2c(c1)OC1(O)c3cccc(N)c3C(=O)C21NC(=O)C(=O)c1ccccc1 (centres unmarked)
2. CC(C)c1ccc2c(c1)OC1(O)c3ccccc3C(=O)C21NC(N)=S (centres unmarked)
3. CSCCC(=O)C(=O)NC12C(=O)c3ccccc3C1(O)Oc1cc(C(C)C)ccc12 (centres unmarked)

RESULT:
1. 3.13 µg/mL
2. > 10 µg/mL
3. > 10 µg/mL
